B1: HDV Ribozyme (parent)
chain: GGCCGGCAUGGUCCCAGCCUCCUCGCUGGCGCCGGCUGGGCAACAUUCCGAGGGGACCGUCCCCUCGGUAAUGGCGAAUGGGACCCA

Variants of: B1
Protocol Text: self-cleavage, relative activity (ratio to wild type); higher = more cleavage; co-transcriptional
Label MET for high-side self-cleavage (at or above 0.4) and NOT MET for low-side self-cleavage (below it).

# bool: self-cleavage of GGCCGGCAUGGUCCCAGCCUCCUCGCUGGCGCCGGCUGGGCAACAAUCCGAGGGGACCGUCCACUCGGUAAUGGCGAAUGGGACCCA >= 0.4
MET

# bool: self-cleavage of GGCCGGCAUGGUCCCGGCCUACUCGCUGGCGCCGGCUGGGCAACAUUCCGAGGGGACCGUCCCCUCGGUAAUGGCGAAUGGGACCCA >= 0.4
NOT MET

# bool: self-cleavage of GGCCGGCAUGGUCCCAGCCUCCUCGCUGGCGCCGGCUGGACAACAUUCCGAGGGGACCGUCCCCUCGGUAAUGGCGACUGGGACCCA >= 0.4
NOT MET

# bool: self-cleavage of GGCCGGCAUGGUCCCAGCCUCCUCGCUGGCGCCGGCUGGGCAACAUACCGAGGGGACCGUCCCCUCGGUAAUGGCGAAUAGGACCCA >= 0.4
NOT MET

# bool: self-cleavage of GGCCGGCAUGGUCCCAGCCUCCUCGCAGGCGCCGGCUGGGCAACCUUCCGAGGGGACCGUCCCCUCGGUAAUGGCGAAUGGGACCCA >= 0.4
NOT MET

# bool: self-cleavage of GGCCGGCCUGGUCCCAGCCUCCUCGCUGGCGCCGGCUGGGCAACAUUCCGUGGGGACCGUCCCCUCGGUAAUGGCGAAUGGGACCCA >= 0.4
MET

# bool: self-cleavage of GGCCGGCAUGGUCCCAGCCUCCUCGCAGGCGCCGGCUGGGCAACAUUCCGAGGGGACCGUCCCCUCGGUAAUGGCCAAUGGGACCCA >= 0.4
MET

# bool: self-cleavage of GGCCGGCAUGGUCCCAGCCUCCUCGCUGGCGCCGGCUGGGAAACAUUCCGAGGGGACCGUCCCCUCGGUAAUGGCGAAUGGGACUCA >= 0.4
MET

# bool: self-cleavage of GGCCGGCAUGGUCCCAGCCUCCUCGCUGGCGCCGGCUGGGCAACAUUCCGAGGGGACGGUCCCCUCGGUAAUGGCGCAUGGGACCCA >= 0.4
NOT MET

# bool: self-cleavage of GUCCGGCAUGGUCCCAGCCUCCUCGCUGGCGCCGGCUGGGCAACAUUCCGAGGGGACCGUCCCCUCGGUAAUGGCGAAUGGGACCGA >= 0.4
NOT MET

# bool: self-cleavage of GGCCGGCAUGGUCCCAGCCUCCUCGCUGGCGCCGGCUGGGCAACAUUCCGAGGGGACCAUCUCCUCGGUAAUGGCGAAUGGGACCCA >= 0.4
MET

# bool: self-cleavage of GGCCGGCAUGGUCCCAGCCUCCUCGCUGGCCCCGGCUGGGCAACAUUCCGAGGGGACCGUCCCCUCGGUAUUGGCGAAUGGGACCCA >= 0.4
NOT MET

# bool: self-cleavage of GCCCGGCAUGGUCCCAGCCUCCUCGCUGGCGCCGGCUGGGCAACAUUCGGAGGGGACCGUCCCCUCGGUAAUGGCGAAUGGGACCCA >= 0.4
NOT MET

# bool: self-cleavage of GGCCGGCAUGGUCCCAGCCUCCUCGCUGGCGCCGGCUGGGCAACAUUCCGAGAGGACCGUCCCCUCGGUAAUGGCGAAGGGGACCCA >= 0.4
MET

# bool: self-cleavage of GGCCGGCAUGGUCCCAGCCUCCUCGCUGACGCCGGCUGGGCAACAUUCCGAGGGGACCGUCCCCUCGGUAGUGGCGAAUGGGACCCA >= 0.4
NOT MET

# bool: self-cleavage of GGCCGGCAUGGUCCCAGCCUCCUCGCUGGCGCCGGCUGGGCAACAUUCCGAGGGGGCCGUCCCCUCGGGAAUGGCGAAUGGGACCCA >= 0.4
MET
